Tested on: galium (catchweed bedstraw, Galium aparine)
Experiment: Test C greenhouse herbicide test, pre- and postemergence
Format: in vivo
Details: Preemergence, 31 g ai/ha; scale 0 to 100, 0 is no effect, 100 is complete control
experimental_readout: Plant response rating, Galium
Give bare numbers.

Cc1nn(C)c(=O)c(-c2ccc(F)c3ccccc23)c1O [Compound 41] :: 90
Cc1ccc2ccccc2c1-c1c(OC(=O)OC(C)C)c(C)nn(C)c1=O [Compound 72] :: 90

Could you report Plant response rating, Galium for every entry in the following list?
1. CCCC(=O)Oc1c(C)nn(C)c(=O)c1-c1c(C)sc2ccc(C)cc12 [Compound 105]
2. Cc1ccc2ccccc2c1-c1c(O)c(I)nn(C)c1=O [Compound 29]
3. COC(=O)Oc1cnn(C)c(=O)c1-c1c(C)sc2ccccc12 [Compound 97]
4. CCc1sc2c(C)cc(C)cc2c1-c1c(O)c(C)nn(C)c1=O [Compound 57]
5. COC(=O)Oc1c(OC)nn(C)c(=O)c1-c1c(C)ccc2ccccc12 [Compound 136]
6. CCCC(=O)Oc1c(C)nn(C)c(=O)c1-c1c(CC)sc2ccc(C)cc12 [Compound 107]
7. CCC(=O)Oc1c(C)nn(C)c(=O)c1-c1ccc(Br)c2ccccc12 [Compound 134]

1: 85; 2: 95; 3: 0; 4: 80; 5: 90; 6: 90; 7: 100

Consider the molecule shown here: CCc1oc2ccc(C)cc2c1-c1c(O)c(C)nn(C)c1=O [Compound 10] What is its recorded Plant response rating, Galium?
0

###

For each of the compounds below, state its Plant response rating, Oat, Wild.
Tested on: oat, wild (wild oat, Avena fatua)
Assay: Test D controlled growth environment herbicide test, pre- and postemergence
Type: in vivo
Settings: postemergence, 62 g ai/ha; scale 0 to 100, 0 no effect, 100 complete control
Numbers only.

Illustrative cases are given below, each with its answer.
COC(=O)Oc1c(C)nn(C)c(=O)c1-c1c(C)sc2ccc(C)cc12 :: 98
Cc1cc(C)c2sc(C)c(-c3c(O)c(C)nn(C)c3=O)c2c1 :: 80
Cc1ccc2sc(Br)c(-c3c(O)c(C)nn(C)c3=O)c2c1 :: 70
Cc1nn(C)c(=O)c(-c2cccc3ccc(Br)cc23)c1O :: 70
Cc1ccc2ccccc2c1-c1c(OC(=O)OC(C)C)c(C)nn(C)c1=O :: 85

Could you report Plant response rating, Oat, Wild for every entry in the following list?
1. Cc1cc(C)c2ccccc2c1-c1c(O)c(C)nn(C)c1=O
2. Cc1cc2ccccc2c(-c2c(O)c(C)nn(C)c2=O)c1C
3. Cc1nn(C)c(=O)c(-c2ccc(F)c3ccccc23)c1O

85
85
80

###

Tested on: wheat, spring (spring wheat, Triticum aestivum)
Assay: Test D controlled growth environment herbicide test, pre- and postemergence
Assay type: in vivo
Conditions: Preemergence, 250 g ai/ha; scale 0 to 100, 0 no effect, 100 complete control
Description: […]
Rule: 1 for Plant response rating, Wheat, Spring not less than 40, 0 for anything less.

Cc1nn(C)c(=O)c(-c2c(C)sc3ccc(Br)cc23)c1O :: 0
Cc1nn(C)c(=O)c(-c2cccc3ccc(Br)cc23)c1O :: 0
Cc1nn(C)c(=O)c(-c2cccc3ccccc23)c1O :: 0
COC(=O)Oc1c(C)nn(C)c(=O)c1-c1c(C)sc2ccc(C)cc12 :: 0
Cc1ccc2sc(C)c(-c3c(OC(=O)OC(C)C)c(C)nn(C)c3=O)c2c1 :: 0

Query compound follows.
Can Cc1nn(C)c(=O)c(-c2ccc(Br)c3ccccc23)c1O be said to have Plant response rating, Wheat, Spring at or above 40?
1
